Where do these numbers come from? They come from PubChem BioAssay AID1851.

ASSAYED_SYSTEM: Cytochrome P450 2D6 (Homo sapiens)
EXPERIMENT_SUMMARY: Cytochrome panel assay with activity outcomes; on activity, negative = inhibition: on the % scale 0 is the no-effect control and ±100 the full control effect
TEST_CONDITIONS: recombinant CYP, pro-luciferin dealkylation, luminescence, p450-cyp2d6; series mostly up to 57.1 µM
In all, about 16,000 compounds went through this assay and about 2,600 (16%) were called active. Inconclusive results (about 20%) are left out. A selection follows.
MEASURED_QUANTITY: activity, negative = inhibition

MOLECULE	MEASURED_QUANTITY	EXPERIMENTAL_RESULT
OCCN(CCO)c1ncnc2nc[nH]c12	activity, negative = inhibition	-3.25% [at 11.4 µM] (inactive)
CC(CO)(CO)N=Cc1cc(I)cc(I)c1O	activity, negative = inhibition	3.56% [at 11.4 µM] (inactive)
S=c1nc[nH]c2c1ncn2Cc1ccco1	activity, negative = inhibition	1.42% [at 11.4 µM] (inactive)
NC1=N[C@H](c2ccc(Cl)cc2)N(c2ccc(S(=O)(=O)Nc3ncccn3)cc2)C(N)=N1	activity, negative = inhibition	-2.11% [at 11.4 µM] (inactive)
C=CCSc1nc2ccccc2c(=O)n1Cc1ccco1	activity, negative = inhibition	-11.2% [at 11.4 µM] (inactive)
NC(N)=NC(N)=Nc1ccccc1 (tested in a mixture with another compound)	activity, negative = inhibition	-8.99% [at 11.4 µM] (inactive)
CO[C@@H]1COC(=O)C/C=C\[C@@H](C)[C@H](OC)COC(=O)[C@H](COCc2ccccc2)NC(=O)C/C=C\[C@H]1C	activity, negative = inhibition	-2.59% [at 11.4 µM] (inactive)
Clc1ccccc1NN(Cc1ccccn1)c1ccccc1Cl	activity, negative = inhibition	-11.2% [at 11.4 µM] (inactive)
NS(=O)(=O)c1ccc(NCc2nc3ccccc3[nH]2)cc1	activity, negative = inhibition	-10.2% [at 11.4 µM] (inactive)
NS(=O)(=O)c1ccc(NCc2cnc3ccccc3n2)cc1	activity, negative = inhibition	16.5% [at 11.4 µM] (inactive)
C[C@@]12CCC(=O)C=C1CC[C@H]1[C@@H]2[C@@H](O)C[C@]2(C)[C@@H]1CC[C@@]2(O)C(=O)COC(=O)C1CCCC1	activity, negative = inhibition	8.32% [at 11.4 µM] (inactive)
O=C(NCc1cccnc1)[C@@H]1[C@@H](C(=O)O)[C@H]2CC[C@@H]1O2	activity, negative = inhibition	8.3% [at 11.4 µM] (inactive)
Nc1nc2c(c(=O)[nH]1)N[C@H](CCNc1ccc(C(=O)O)cc1)CN2	activity, negative = inhibition	1.76% [at 11.4 µM] (inactive)
N[C@@H]1[C@@H]2[C@@H]3C[C@H]4N(CC[C@@]14C(=O)C(=O)O)CC3=CCO[C@@H]2CC(=O)O	activity, negative = inhibition	-4.74% [at 11.4 µM] (inactive)
CCN1C(=O)[C@H]2[C@H]3[C@H](O)[C@H](O)C/C(=N/OCC(C)C)[C@@H]3CC[C@@H]2C1=O	activity, negative = inhibition	8.5% [at 11.4 µM] (inactive)
Cn1c(=O)c2[nH]c(CCS)nc2n(C)c1=O	activity, negative = inhibition	4.9% [at 11.4 µM] (inactive)
CC(C)(C)C(=O)[C@H]([C@@H](c1ccccc1)N1CCOCC1)N1CCOCC1	activity, negative = inhibition	6.76% [at 11.4 µM] (inactive)
Cn1c(=O)c2c(nc(C(=N)SCC(=O)O)n2C)n(C)c1=O	activity, negative = inhibition	1.35% [at 11.4 µM] (inactive)
O=C(O)c1ccc(C(=O)O)c(C(=O)O)c1.[NH-][C@@H]1CCCC[C@@H]1[NH-].[Pt]	activity, negative = inhibition	7.05% [at 11.4 µM] (inactive)
O=C1c2ccccc2N[C@H](c2cc(Cl)cc(Cl)c2O)N1CCc1ccccn1	activity, negative = inhibition	15% [at 11.4 µM] (inactive)

* * *

ASSAYED_SYSTEM: Cytochrome P450 2D6 (Homo sapiens)
EXPERIMENT_SUMMARY: Cytochrome panel assay with activity outcomes
TEST_CONDITIONS: recombinant CYP, pro-luciferin dealkylation, luminescence, p450-cyp2d6; series mostly up to 57.1 µM
Hit rate of the full screen: of about 16,000 compounds, about 2,600 (16%) were called active. About 20% were inconclusive and are not listed. Calls come from the whole dose curve; as a rule, active = well fitted curve in the direction sought with a large enough effect; inconclusive = small, poorly fitted or top-dose-only effect, or effect the other way; inactive = no such curve, though single readings can be large or run the other way. Not all results are given here.
Outcomes: yes (active), no (inactive)

STRUCTURE_SMILES_STRING	CLASSIFICATION
O=C(Nc1cccc(F)c1)N1CCC2(CC1)CCN(C(=O)c1ccco1)CC2	no
COc1ccccc1CN1CC[C@@]2(CCCN(C(C)=O)C2)C1	yes
O=C(N/C(=C\c1cccnc1)C(=O)N1CCOCC1)c1cccc(Br)c1	no
COC(=O)N1CCC2(CCCN(Cc3ccccc3OC)C2)CC1	yes
COc1ccccc1CN1CCCC2(CCN(C(C)=O)CC2)C1	yes
COC(=O)N1CCC2(CCCN(C(=O)Nc3ccc(OC)cc3)C2)CC1	no

* * *

ASSAYED_SYSTEM: Cytochrome P450 2D6 (Homo sapiens)
EXPERIMENT_SUMMARY: Cytochrome panel assay with activity outcomes
TEST_CONDITIONS: recombinant CYP, pro-luciferin dealkylation, luminescence, p450-cyp2d6; series mostly up to 57.1 µM
Hit rate of the full screen: of about 16,000 compounds, about 2,600 (16%) were called active. Roughly 20% stayed inconclusive and do not appear here. Calls come from the whole dose curve; as a rule, active = well fitted curve in the direction sought with a large enough effect; inconclusive = small, poorly fitted or top-dose-only effect, or effect the other way; inactive = no such curve, though single readings can be large or run the other way. A selection follows.
Outcomes: T (active), F (inactive)

COMPOUND	CLASSIFICATION
COc1cc2c(cc1OC)/C(=C/C(=O)N1CCOCC1)NC(C)(C)C2	T
Cc1ccc(N=CC2=C(O)CC(c3ccco3)CC2=O)cc1 (configuration not stated)	F
N#CCCn1c(=O)c(-c2cc(F)cc(F)c2)nc2cnc(Nc3ccccc3)nc21	F
CCCCCCCCCCCCCCCCCCNC(=O)OC[C@@H](COP(=O)([O-])OCC[n+]1ccsc1)OC	F
Cc1cccc(N/C(=N\S(=O)(=O)c2ccccc2)C(F)(F)F)c1	F
COc1ccc(CC(=S)N2CCOCC2)cc1OC	F
O=C(O)/C=C\[C@H](O)c1ccc(Cl)cc1	F
Cn1c(=O)c(-c2cc(F)cc(F)c2)nc2cnc(Oc3ccccc3)nc21	F
CCNc1ncc2nc(-c3ccccc3)c(=O)n(CCC#N)c2n1	T
N#CCCn1c(=O)c(-c2ccccc2)nc2cnc(Nc3ccccc3)nc21	F
COc1cc2c(cc1OC)C(C(=O)N1CCOCC1)C(c1cccs1)N(C)C2=O (configuration not stated)	F
CC(=O)Nc1ccc(C2=NN(CC#N)C(=O)SC2)cc1	F
Nc1ccc(S(=O)(=O)Nc2cnc3ccccc3n2)cc1	F
COc1ccc(NC(=O)N2CC3(CCN(C(=O)c4ccc(OC)cc4)CC3)C2)cc1	F
COc1ncc2nc(-c3cc(F)cc(F)c3)c(=O)n(CCC#N)c2n1	F
COc1ccc(C(=O)NNC(=S)NC(=O)c2ccco2)cc1	F
O=S(=O)(c1ccccc1)c1cnc(-c2cccnc2)nc1-c1ccc(Cl)cc1Cl	F

* * *

ASSAYED_SYSTEM: Cytochrome P450 2D6 (Homo sapiens) (UniProt P10635)
Sequence (P10635 whole entry, looked up): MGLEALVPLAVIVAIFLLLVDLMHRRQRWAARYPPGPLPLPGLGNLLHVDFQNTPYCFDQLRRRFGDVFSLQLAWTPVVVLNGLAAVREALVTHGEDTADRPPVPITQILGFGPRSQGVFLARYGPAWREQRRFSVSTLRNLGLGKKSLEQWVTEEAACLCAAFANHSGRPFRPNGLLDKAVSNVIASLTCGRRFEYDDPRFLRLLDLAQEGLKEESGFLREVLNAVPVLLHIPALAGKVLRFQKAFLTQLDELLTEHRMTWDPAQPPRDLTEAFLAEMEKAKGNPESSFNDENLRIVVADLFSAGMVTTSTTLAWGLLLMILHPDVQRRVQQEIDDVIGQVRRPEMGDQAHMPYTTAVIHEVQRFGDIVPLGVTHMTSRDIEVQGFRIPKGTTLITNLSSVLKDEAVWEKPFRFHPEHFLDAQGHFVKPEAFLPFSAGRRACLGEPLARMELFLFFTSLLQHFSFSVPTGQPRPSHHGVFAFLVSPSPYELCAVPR
EXPERIMENT_SUMMARY: Cytochrome panel assay with activity outcomes
TEST_CONDITIONS: recombinant CYP, pro-luciferin dealkylation, luminescence, p450-cyp2d6; series mostly up to 57.1 µM
About 2,600 (16%) of roughly 16,000 compounds were called active. Inconclusive results (about 20%) are left out. Not all results are given here.
MEASURED_QUANTITY: AC50

STRUCTURE_SMILES_STRING	EXPERIMENTAL_RESULT
COc1ccc2[nH]c(=O)c(NC(N)=S)nc2c1	inactive
COc1cc(/C=C2/C(=N)N3C=CSC3=NC2=O)ccc1OCCCOc1c(C)cccc1C	inactive
CC(C)(C)c1cc(C(=O)O)c(CN2CCCCC2)o1	inactive
O=C(OCn1ncc(Cl)c(Cl)c1=O)c1cccc(C(F)(F)F)c1	inactive
O=C(O)c1cccc(CN2CCCCC2)c1	1000 nM (active)
CCOC(=O)Cc1csc(NS(=O)(=O)c2ccccc2)n1	inactive
